- Tested on: PKB Ser473 phosphorylation in Rat1-myr-HA-p110 beta cells
- Method summary: Reverse protein array, PKB Ser473 phosphorylation in Rat1-myr-HA-p110 beta cells
- Assay type: cell-based
- Protocol conditions: Rattus norvegicus, 0.5 h, 30 minutes compound incubation, read-out: p-PKB/IC50_beta
// reported pIC50 per item
Scale: pIC50 equals -log10([C]), with [C] in mol/L.

Consider the following illustrative entries.
Molecule | Reported result
CNc1ccc(-c2ccc3ncc4c(c3c2)n(-c2ccc(N(C)CCOC)nc2C)c(=O)n4C)cn1 [Example 15.4] | 7.82
CNc1ncc(-c2ccc3ncc4c(c3c2)n(-c2ccc(OC)nc2C)c(=O)n4C)cn1 [Example 11.3] | 7.74
COCC(=O)Nc1ccc(-n2c(=O)n(C)c3cnc4ccc(-c5cncc(OC(C)C)c5)cc4c32)c(C)n1 [Example 20.5] | 6.78

We next turn to a different molecule, shown below.
Can you share its pIC50? I mean this molecule: Cc1nc(N2CCC2)ccc1-n1c(=O)n(C)c2cnc3ccc(-c4cncc(OC(C)C)c4)cc3c21 [Example 23.9]
6.87
